measured.target: VEGF165 (recombinant human vascular endothelial growth factor, 165 aa form) (Homo sapiens, UniProt P15692-4 P15692-4:27-191)
Sequence (P15692 other isoform, or with tags, fused parts or gaps): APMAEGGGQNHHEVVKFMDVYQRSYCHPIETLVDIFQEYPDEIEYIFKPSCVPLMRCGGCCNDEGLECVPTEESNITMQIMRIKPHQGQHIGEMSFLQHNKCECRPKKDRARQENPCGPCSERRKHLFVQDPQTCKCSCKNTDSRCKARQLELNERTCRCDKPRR
protocol.description: filter; monophasic
experimental.setup: tags: gift from N. Ferrara, Genentech; chain copies: 2 (dimer, stated)
quantity.measured: Kd (nM)
Answers are plain numbers, in nM.

Find the recorded Kd belonging to 23A (ssRNA, 2'-NH2 pyrimidines) RNA: GGGAGACAAGAAUAACGCUCAAGAGGCUGAUGGCAGACGCGGCCGAAGACAUUCGACAGGAGGCUCACAACAGGC and report it.
2.8
